Source of measurements: patent US6864259B2

Test system: E. faecalis RB1
Test: Test A antibacterial assay, standard microtitration (MIC)
Format: cell-based
Conditions: Enterococcus faecalis, Gram positive, read-out: Minimum Inhibitory Concentrations, E. faecalis RB1
Structures can show the parent of a compound that is named as a salt.
MIC values for the compounds below.

| compound | MIC / µg/mL |
| --- | --- |
| Cc1c(N2C[C@H](CN)[C@H](F)C2)c(F)cn2c(=O)n(N)c(=O)c(C3CC3)c12 (racemic) [Compound 4j] | 0.5 |
| Cc1c(N2CC[C@@H]([C@H](C)N)C2)c(F)cn2c(=O)n(N)c(=O)c(C3CC3)c12.Cl [Compound 5b] | 0.13 |
| Cc1c(N2CC[C@@H](C3(N)CC3)C2)c(F)cn2c(=O)n(N)c(=O)c(C3CC3)c12 [Compound 4i] | 0.06 |
| Cc1c(N2CCCC2)c(F)cn2c(=O)n(N)c(=O)c(C3CC3)c12 [Compound 4g] | 2 |
| CN[C@@H](C)[C@@H]1CCN(c2c(F)cn3c(=O)n(N)c(=O)c(C4CC4)c3c2C)C1 [Compound 4f] | 0.06 |
| Cc1c(N2CCC(C(C)O)C2)c(F)cn2c(=O)n(N)c(=O)c(C3CC3)c12 (centres unmarked) [Compound 4h] | 2 |
| Cc1c(N2CC(C(C)N)C(C)(C)C2)c(F)cn2c(=O)n(N)c(=O)c(C3CC3)c12 (centres unmarked) [Compound 5c, hydrochloride] | 2 |
| O=C(O)c1cn(C2CC2)c2cc(N3CCNCC3)c(F)cc2c1=O [Ciprofloxacin, ciprofloxacin, reference compound] | 0.5 |
